Measured pKd accompanies every entry in the list below.
Biological target: KMT9 (Homo sapiens, UniProt Q9Y5N5)
Sequence (Q9Y5N5 1-214): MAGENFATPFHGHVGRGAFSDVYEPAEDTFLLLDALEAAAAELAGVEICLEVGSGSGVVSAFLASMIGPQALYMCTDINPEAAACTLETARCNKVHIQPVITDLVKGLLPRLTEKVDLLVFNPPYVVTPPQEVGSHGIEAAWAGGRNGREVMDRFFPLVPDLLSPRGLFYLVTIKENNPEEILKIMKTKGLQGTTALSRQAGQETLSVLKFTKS
Sequence (Q9UI30 1-120 isoform Q9UI30-2 partner): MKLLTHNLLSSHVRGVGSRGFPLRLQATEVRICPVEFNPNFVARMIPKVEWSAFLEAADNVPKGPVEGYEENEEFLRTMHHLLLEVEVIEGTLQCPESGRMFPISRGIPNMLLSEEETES
Assay: Microscale thermophoresis (MST) KMT9 binding
Settings: His-tag labelled KMT9 20 nM; Kd class; read-out: MST
Procedure: To determine the binding affinity of the compounds according to the present invention and KMT9, microscale thermophoresis (MST) analysis was performed with a NanoTemper Monolith NT.115 instrument (NanoTemper Technologies GmbH). KMT9 was labelled with a RED-Tris-NTA labelling kit (NanoTemper Technologies GmbH) based on the manufacturer's instructions. Buffer including 25 mM HEPES (pH 7.5), 100 mM NaCl, 1 mM DTT and 0.05% Tween was used for the reaction buffer. […]
pKd: −log10 of the molar value.

INSERT INTO assay_data (molecule, endpoint_label, recorded_measurement) VALUES
  ('CCc1cn([C@@H]2C[C@H](c3ccccc3)[C@@H](O)[C@H]2O)c2ncnc(N)c12', 'pKd', '< 6.00');

Q. Can you look up the measured pKd of O[C@@H]1[C@H](O)[C@@H](C2=CCCN(CCc3ccccc3)C2)C[C@H]1n1cc(-c2nc(Cc3ccccc3)cs2)c2cnc(Cl)nc21 for me?
A. < 6.00

Q. What about this compound? CN(CCCNCCc1ccccc1)C[C@H]1C[C@@H](n2cc(-c3cc(Cc4ccccc4)cs3)c3cncnc32)[C@H](O)[C@@H]1O
A. 6.00 to 7.00

Q. What about this compound? CCN(CCCNCCc1ccc(F)cc1)C[C@H]1C[C@@H](n2cc(-c3ccccc3)c3c(N)nc(Cl)nc32)[C@H](O)[C@@H]1O
A. 7.00 to 8.00

Q. What about this compound? Nc1ncnc2c1ccn2[C@@H]1C[C@H](c2cccc(-c3cscn3)c2)[C@@H](O)[C@H]1O
A. < 6.00

Q. What about this compound? CN1CCC([C@H]2C[C@@H](n3cc(-c4ccn(S(=O)(=O)c5ccccc5)n4)c4c(N)nc(Cl)nc43)[C@H](O)[C@@H]2O)CC1
A. ≥ 8.00

Q. What about this compound? Nc1ncnc2c1ccn2[C@@H]1C[C@H](c2cccc(-c3cnsc3)c2)[C@@H](O)[C@H]1O
A. 6.00 to 7.00

---

biological target: KMT9 (Homo sapiens); assay: KMT9 methyltransferase inhibition assay, 3H-SAM scintillation (entries 1-154); assay type: biochemical; conditions: entries 1-154: 3H-SAM assay, 25 nM KMT9, 5 μM ETF1
Measured IC50 accompanies every entry in the list below.

INSERT INTO measurements (molecule, recorded_measurement) VALUES
  ('CNc1ncnc2c1ccn2[C@@H]1C[C@H](CN(CCCNCCc2ccc3ccccc3c2)CC(F)(F)F)[C@@H](O)[C@H]1O', '> 10 µM'),
  ('Nc1ncnc2c1c(Br)cn2[C@@H]1C[C@H](CNCCCNCCc2ccccc2F)[C@@H](O)[C@H]1O', '0.1 to 1 µM'),
  ('Nc1ncnc2c1c(Br)cn2[C@@H]1C[C@H](CNCCCNCCc2ccc(F)cc2F)[C@@H](O)[C@H]1O', '0.1 to 1 µM'),
  ('CNc1ncnc2c1ccn2[C@@H]1C[C@H](CCCCNCCc2ccccc2)[C@@H](O)[C@H]1O', '> 10 µM'),
  ('CCC(=O)NCCCNC(=O)[C@H]1O[C@@H](n2cnc3c(N)ncnc32)[C@H](O)[C@@H]1O', '> 10 µM');

Q. Can you look up the measured IC50 of CNc1ncnc2c1ccn2[C@@H]1C[C@H](C(=O)NCC2CCNCC2)[C@@H](O)[C@H]1O for me?
A. > 10 µM

Q. What about this molecule? CN(C)C(=O)[C@H]1C[C@@H](n2cc3c4c(ncnc42)NCCC3)[C@H](O)[C@@H]1O
A. > 10 µM
